Would you mind telling me the reported polymerase ribozyme fitness (log ratio) of each entry?
B1: TPR 5TU (parent)
chain: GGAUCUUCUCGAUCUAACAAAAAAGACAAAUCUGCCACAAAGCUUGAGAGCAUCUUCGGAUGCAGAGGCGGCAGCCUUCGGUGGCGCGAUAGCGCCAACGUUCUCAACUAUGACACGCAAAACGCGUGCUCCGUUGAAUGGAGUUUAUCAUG

Variants of: B1
Assay: polymerase ribozyme fitness, log enrichment relative to wild type (log ratio); higher = more active; in vitro selection for triplet polymerase activity
This sample holds only a part of the variants without activity.
One number for each entry.

1. U56A A89U C96G	-1

Okay, here is my list. What is polymerase ribozyme fitness (log ratio) for each of these?
1. C76A C96U U145G
2. A49U C85G A115C

[reply]
1: -0.785; 2: -3.64
